B1: LINE1-full (parent)
chain: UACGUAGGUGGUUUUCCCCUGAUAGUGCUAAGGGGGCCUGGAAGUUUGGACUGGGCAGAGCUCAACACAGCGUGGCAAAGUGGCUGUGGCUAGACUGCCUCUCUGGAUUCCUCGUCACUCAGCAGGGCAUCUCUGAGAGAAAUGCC

- Variants of: B1
- protocol: self-cleavage, relative activity (ratio to wild type); higher = more cleavage; in vitro, sequencing; the parent is a self-cleaving ribozyme
Recorded self-cleavage, one value per entry.
// no unit, no text: just the number

Field: example entries. Status: answers known.
# variant-string, self-cleavage
data = [
    ("G32A U108C", 0.76),
    ("G40A A107G", 1.17),
]

May I ask what self-cleavage has been recorded for C71A ?
0.2

May I ask what self-cleavage has been recorded for G80U A141G ?
1.1

May I ask what self-cleavage has been recorded for U29C C66U ?
0.07

May I ask what self-cleavage has been recorded for A50G A129C ?
0.75

May I ask what self-cleavage has been recorded for U47C A65G ?
0.09
